Values compiled from patent US20220106301A1.

testedSystem: CYP3A4 (Homo sapiens, UniProt P08684)
Sequence (P08684 whole entry): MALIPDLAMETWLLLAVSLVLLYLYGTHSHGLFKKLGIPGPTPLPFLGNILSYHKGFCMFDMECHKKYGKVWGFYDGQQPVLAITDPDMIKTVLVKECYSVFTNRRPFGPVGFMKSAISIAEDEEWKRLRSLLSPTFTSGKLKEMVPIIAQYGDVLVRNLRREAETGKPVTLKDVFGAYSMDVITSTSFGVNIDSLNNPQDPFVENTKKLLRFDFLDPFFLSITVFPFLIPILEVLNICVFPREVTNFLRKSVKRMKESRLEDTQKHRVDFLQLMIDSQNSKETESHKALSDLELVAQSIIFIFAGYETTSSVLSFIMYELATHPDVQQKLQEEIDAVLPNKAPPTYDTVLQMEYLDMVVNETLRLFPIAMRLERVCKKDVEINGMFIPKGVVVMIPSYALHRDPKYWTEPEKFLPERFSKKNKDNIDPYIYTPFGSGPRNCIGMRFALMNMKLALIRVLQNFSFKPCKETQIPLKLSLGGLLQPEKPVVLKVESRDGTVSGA
protocolDetails: Determination of CYP3A4 inhibitory activity (human liver microsome, Luciferin-IPA)
conditionParameters: CYP3A4 IC50 (nM), 37° C. 11 minutes
endpointLabel: IC50

Some solved cases for reference:
CCCN(CCc1ccc(NC(=O)c2cc(OC)c(OC)cc2NC(=O)c2cc(=O)c3ccccc3o2)cc1)Cc1ccc(-n2ccnc2)c(OC)c1 [Compound 91] :: 100 to 250 nM
COc1cncc(CN(CCc2ccc(NC(=O)c3ccc(C(=O)O)cc3NC(=O)c3cc(=O)c4ccccc4o3)cc2)Cc2ccc3c(cnn3C)c2)c1 [Compound 259] :: > 1000 nM
COc1cc(NC(=O)c2cc(=O)c3ccccc3o2)c(C(=O)Nc2ccc(CCN(C)Cc3ccc4c(ccn4C)c3)cc2)cc1OC [Compound 190] :: > 1000 nM

## Task What does the record list as IC50 for Cn1ncc2cc(CN(CCc3ccc(NC(=O)c4ccc(C(=O)OCc5cccnc5)cc4NC(=O)c4cc(=O)c5ccccc5o4)cc3)Cc3ccc4c(cnn4C)c3)ccc21 [Compound 268] ?
## Result > 1000 nM

## Task Same read-out for COc1cc(NC(=O)c2cc(=O)c3ccccc3o2)c(C(=O)Nc2ccc(CCN(Cc3ccc(-n4ccnc4)cc3)Cc3ccc4c(cnn4C)c3)cc2)cc1OC [Compound 26] ?
## Result 250 to 500 nM

## Task Same read-out for COc1cc(NC(=O)c2cc(=O)c3cc(C)ccc3o2)c(C(=O)Nc2ccc(CCN(Cc3cncc(C)c3)Cc3ccc4c(cnn4C)c3)cc2)cc1OC [Compound 77] ?
## Result 250 to 500 nM

====

testedSystem: CYP3A4 (Homo sapiens, UniProt P08684)
protocolDetails: Determination of CYP3A4 inhibitory activity (human liver microsome, Luciferin-IPA)
conditionParameters: CYP3A4 IC50 (nM), 37° C. 11 minutes
endpointLabel: IC50

COc1cc(NC(=O)c2cc(=O)c3ccccc3o2)c(C(=O)Nc2ccc(CCN(Cc3cccc(-c4nc(C)no4)c3)Cc3cncs3)cc2)cc1OC :: 500 to 1000 nM
COc1cc(NC(=O)c2cc(=O)c3ccccc3o2)c(C(=O)Nc2ccc(CCN(Cc3cncc(OCCN4CCOCC4)c3)Cc3ccc4c(cnn4C)c3)cc2)cc1OC :: 250 to 500 nM

API: the following record is the query input.
## Task What does the record list as IC50 for COc1cc(NC(=O)c2cnc3ccccc3n2)c(C(=O)Nc2ccc(CCN(Cc3ccc4c(cnn4C)c3)Cc3ccc4cnn(C)c4c3)cc2)cc1OC ?
## Result > 1000 nM

====

testedSystem: UniProt:P08684
protocolDetails: Determination of CYP3A4 inhibitory activity (human liver microsome, Luciferin-IPA)
conditionParameters: CYP3A4 IC50 (nM), 37° C. 11 minutes
endpointLabel: IC50

Some solved cases for reference:
CCN(CCc1ccc(NC(=O)c2cc(OC)c(OC)cc2NC(=O)c2cc(=O)c3ccccc3o2)cc1)Cc1cccc(OC[C@@H]2CO[C@@](Cn3ccnc3)(c3ccc(Cl)cc3Cl)O2)c1 [Compound 127] :: < 100 nM
COc1cc(NC(=O)c2cc(=O)c3ccccc3o2)c(C(=O)Nc2ccc(CCN(Cc3cncc(O)c3)Cc3ccc4c(cnn4C)c3)cc2)cc1OC [Compound 223] :: 100 to 250 nM
COc1cc(NC(=O)c2cc(=O)c3ccccc3o2)c(C(=O)Nc2ccc(CCN(Cc3cccc(-n4ccnc4)c3)Cc3ccc(C)c4ncccc34)cc2)cc1OC [Compound 206] :: > 1000 nM
COc1cc(NC(=O)c2cc(=O)c3ccccc3o2)c(C(=O)Nc2ccc(CCN(Cc3ccc(-n4ccnc4C)cc3)Cc3cccc(-n4ccnc4)c3)cc2)cc1OC [Compound 243] :: > 1000 nM
COc1cc(NC(=O)c2cc(=O)c3ccccc3o2)c(C(=O)Nc2ccc(CCN3CCc4ccncc4C3)cc2)cc1OC [Compound 78] :: 500 to 1000 nM
COc1cc(NC(=O)c2cc(=O)c3ccccc3o2)c(C(=O)Nc2ccc(CCN(Cc3cccc(-n4ccnc4)c3)CC3CC3)cc2)cc1OC [Compound 9] :: 100 to 250 nM
COc1cc(NC(=O)c2cc(=O)c3ccccc3o2)c(C(=O)Nc2ccc(CCN(Cc3cccc(-n4ccnc4)c3)Cc3ccc4nn(C)cc4c3)cc2)cc1OC [Compound 204] :: 250 to 500 nM
COc1cc(NC(=O)c2cc(=O)c3ccccc3o2)c(C(=O)Nc2ccc(CCN(C)Cc3cccc(-c4cncs4)c3)cc2)cc1OC [Compound 15] :: 500 to 1000 nM

API: the following record is the query input.
## Task What does the record list as IC50 for COc1cc(NC(=O)c2cc(=O)c3ccccc3o2)c(C(=O)Nc2ccc(CCN(Cc3cccc(-n4ccnc4)c3)Cc3ccc4c(cnn4C)c3)cc2)cc1OC [Compound 16] ?
## Result 250 to 500 nM
